- tested.on: recombinant DYRK1A kinase (Homo sapiens (Human), UniProt Q13627)
- method: DYRK1A kinase assay (Ser/Thr 18 peptide Z-lyte FRET assay)
- measurement.setup: recombinant DYRK1A 0.25 µg/mL, ATP 15 µM, Ser/Thr peptide 18 4 µM, one hour at room temperature; table head prints EC50, method says IC50
Recorded pEC50 for the following molecules
Field pEC50 (float): negative decimal logarithm of the concentration in molar.

// worked examples, pEC50 included
CN1CC2(CC(Nc3ncc4c(-c5cnc6nccn6c5)ccn4n3)C2)C1 : 7.70
Cc1nc2ccc(-c3ccn4nc(NC5CCN(C(=O)C6CCC(F)(F)CC6)CC5)ncc34)nc2n1CC(F)F : 8.15
Cc1nc2ccc(-c3ccn4nc(N[C@H]5CC[C@@H](OCC(F)F)CC5)ncc34)nc2n1CC(F)F : 8.22
CO[C@H]1C[C@@H](Nc2ncc3c(-c4ccc5nc(C)n(CC(F)F)c5n4)ccn3n2)C1 : 5.48
Cc1nc2ccc(-c3ccn4nc(NC5CCN(S(C)(=O)=O)CC5)ncc34)nc2n1CC(F)F : 8.15

The molecule listed as "Cc1nc2ccc(-c3ccn4nc(N[C@H]5CCN(C6COC6)C[C@H]5F)ncc34)nc2n1CC(F)F" has a reported pEC50 of 8.40

The molecule "CO[C@H]1C[C@@H](Nc2ncc3c(-c4ccc5nccn5c4)ccn3n2)C1" showed pEC50 equal to 7.96

Entry "O[C@H]1C[C@@H](Nc2ncc3c(-c4ccc5nccnc5c4)ccn3n2)C1" — recorded pEC50 = 7.96

Per the records, this molecule ( "C[C@]1(O)CC[C@H](Nc2ncc3c(-c4ccc5nnn(CC(F)F)c5c4)ccn3n2)CC1" ) has pEC50 equal to 7.85
